method-description: p53 small molecule agonists, cell-based qHTS assay: qHTS cell viability counter screen (AID 1963581); further: nearly all actives have a fitted effect of over 45% in size
condition-set: p53RE-bla HCT-116 viability, ATP luminescence, 16 h; series mostly up to 66 µM
Results filed as inconclusive are left out. Active and inactive are the calls of the source. The call rests on the fitted dose curve.
API: response.call in active, inactive

# molecule, discrete-label
records = [
    ("C[C@@H]1O[C@@H](O[C@H]2C[C@@H](O)[C@]3(CO)[C@H]4[C@H](O)C[C@]5(C)[C@@H](C6=CC(=O)OC6)CC[C@]5(O)[C@@H]4CC[C@]3(O)C2)[C@H](O)[C@H](O)[C@H]1O", "active"),
]

Q: Any idea what this test logged for "Oc1ccccc1Cl" ?
A: inactive

Q: What would you report for "Cl/C=C/CCl" ?
A: inactive

Q: What would you report for "COC(=O)c1ccc(CBr)cc1" ?
A: inactive

Q: What would you report for C=C(C)C(=O)OCC1CO1 (stereo unspecified) ?
A: inactive

Q: What would you report for "Cc1ccc([N+](=O)[O-])cc1" ?
A: inactive
